inhibition of IKZF1 HTRF signal: recorded values
- assay system: IKZF1 (dCK*-IKZF1 fusion in HEK293FT)
- method: inhibition of IKZF1 HTRF signal (DMSO = 0%, pomalidomide 10 uM = 100%); higher = lower IKZF1 protein level
- particulars: compound concentration: 5 uM, overnight (~20 h)

- molecule: "CN(C)CCCN1c2ccccc2Sc2ccccc21"
  assay system: "IKZF1 (dCK*-IKZF1 fusion in HEK293FT)"
  inhibition of IKZF1 HTRF signal / %: -35.6
- molecule: "COc1ccc2nc3cc(Cl)ccc3c(Nc3cc(CN4CCCC4)c(O)c(CN4CCCC4)c3)c2n1"
  assay system: "IKZF1 (dCK*-IKZF1 fusion in HEK293FT)"
  inhibition of IKZF1 HTRF signal / %: -32.1
- molecule: "C(=C\\c1ccccc1)/CN1CCN(C(c2ccccc2)c2ccccc2)CC1"
  assay system: "IKZF1 (dCK*-IKZF1 fusion in HEK293FT)"
  inhibition of IKZF1 HTRF signal / %: -25.9
- molecule: "Cc1ccc(S(=O)(=O)NC(=O)NN2CCCCCC2)cc1"
  assay system: "IKZF1 (dCK*-IKZF1 fusion in HEK293FT)"
  inhibition of IKZF1 HTRF signal / %: -31.1
- molecule: "CN(C)CC(O)Cn1c2ccc(Br)cc2c2cc(Br)ccc21 (stereo not given) [wiskostatin]"
  assay system: "IKZF1 (dCK*-IKZF1 fusion in HEK293FT)"
  inhibition of IKZF1 HTRF signal / %: -32.4
- molecule: "c1ccc(-c2ccc(C(c3ccccc3)n3ccnc3)cc2)cc1 (stereo not given)"
  assay system: "IKZF1 (dCK*-IKZF1 fusion in HEK293FT)"
  inhibition of IKZF1 HTRF signal / %: 17.6
- molecule: "CCc1ccc(OCc2ccccc2C(=O)Nc2ccc3nc(C)cc(N)c3c2)cc1"
  assay system: "IKZF1 (dCK*-IKZF1 fusion in HEK293FT)"
  inhibition of IKZF1 HTRF signal / %: 41.1
- molecule: "CCN(CC)CCOc1ccccc1C(=O)CCc1ccccc1 [etafenone]"
  assay system: "IKZF1 (dCK*-IKZF1 fusion in HEK293FT)"
  inhibition of IKZF1 HTRF signal / %: 11
- molecule: "O=C(NC(NC(=S)Nc1ccc(F)c([N+](=O)[O-])c1)C(Cl)(Cl)Cl)C(c1ccccc1)c1ccccc1 (stereo not given)"
  assay system: "IKZF1 (dCK*-IKZF1 fusion in HEK293FT)"
  inhibition of IKZF1 HTRF signal / %: -19.4
- molecule: "Cc1ccccc1/N=N/c1ccc(NC(=O)c2ccnn2C)c(C)c1"
  assay system: "IKZF1 (dCK*-IKZF1 fusion in HEK293FT)"
  inhibition of IKZF1 HTRF signal / %: -27

* * *

- System: HEK293FT dCK*-only
- method: relative growth in counter assay (no AraC = 100%, AraC + DMSO = 0%); higher = more growth rescue independent of IKZF1
- particulars: compound concentration: 5 uM; AraC concentration: 0.3 uM; overnight pretreatment + 4 days AraC
relative growth in counter assay: recorded values

- compound: "CNCCC(Oc1ccc(C(F)(F)F)cc1)c1ccccc1 (stereo not given)"
  relative growth in counter assay (%): 6.85
- compound: "C=CC[C@@H]1/C=C(\\C)C[C@H](C)C[C@H](OC)[C@H]2O[C@@](O)(C(=O)C(=O)N3CCCC[C@H]3C(=O)O[C@H](/C(C)=C/[C@@H]3CC[C@@H](O)[C@H](OC)C3)[C@H](C)[C@@H](O)CC1=O)[C@H](C)C[C@@H]2OC"
  relative growth in counter assay (%): 18.6
- compound: "O=C(Nc1ccc(F)cc1)N1CCc2ccccc2C1c1ccc(C(F)(F)F)cc1 (stereo not given)"
  relative growth in counter assay (%): 4.9
- compound: "CC(=NNc1nnc2c(n1)[nH]c1c(C)cccc12)c1ccccn1"
  relative growth in counter assay (%): -31.6
- compound: "CCN(CC)CCNc1ccc(CO)c2sc3ccccc3c(=O)c12"
  relative growth in counter assay (%): -31.9
